All figures here come from PubChem BioAssay (NCI).

Listed next: entries and their corresponding TGI.
test system: SK-MEL-5 melanoma; assay: NCI tumour cell line growth inhibition, 48 h

A selection of reference data follows.
O=C1Nc2ccccc2S/C1=C\c1cccc(C(F)(F)F)c1 :: > 100 µM
O=C1/C(=C/c2ccc(Cl)cc2)N=C(c2ccccc2)N1c1nc2ccccc2s1 :: > 100 µM

Okay, now this compound:
Please give the measured TGI for this compound: `NC(N)=NC(P(=O)(O)O)P(=O)(O)O` > 100 µM

---

test system: DU-145 prostate; assay: NCI tumour cell line growth inhibition, 48 h; in the data active = GI50 below about 0.43 µM; inactive = the rest
Lab note: assign the record to one of TRUE = active, FALSE = inactive

Use these answered entries as a reference point.
CN(C)c1ncnc2c1nnn2C1OC(CO)C(O)C1O (stereo unspecified) :: TRUE
C=CC(C=O)C1(O)CCOC(=O)/C1=C\N (stereo unspecified) :: FALSE
Cn1cc(C2=C(c3cccnc3)C(=O)NC2=O)c2ccccc21 :: FALSE

Recorded test call requested for `CCCC[N+](CCCC)=c1ccc2nc3c(C)cc(N(CC)CC)cc3sc-2c1` TRUE

Recorded test call requested for `O=C(Nc1cccc(Oc2nnc(Cl)c3ccccc23)c1)Nc1ccc(Cl)c(C(F)(F)F)c1` FALSE

Recorded test call requested for `O=C(Nc1ccc(Cl)cc1F)c1cc(I)ccc1O` FALSE
